Molecular target: HLA-A*0206 (human)
Test: competitive inhibition of 125I-labelled standard peptide binding to purified HLA
Conditions: remark: other sources report otherwise
reported-metric: pIC50
# reply with the number alone; pIC50 is -log10 of concentration in mol/L

* TLSVTWIGV (modifications not checked) [Peptide 60.0217, … (PSA.5.V9)] | 6.15
* VVFLTLSVTWI (modifications not checked) [Peptide 1419.25, … (PSA.1)] | 5.55
* VVFLTLSVTWV (modifications not checked) [Peptide 63.0185, … (PSA.1.V11)] | 6.47

## Task Could you tell me which pIC50 is on file for KVTKFMLCV (modifications not checked) [Peptide 60.0220, … (PSA.187.V9)] ?
## Result 6.89

## Task Could you tell me which pIC50 is on file for KLQCVDLHVV (modifications not checked) [Peptide 63.0058, … (PSA.166.V10)] ?
## Result 6.30
